procedure_summary: gradient 5% acetonitrile 3 min, to 50% in 2 min, to 85% in 15 min, held 3 min, 100 µL/min
experimental_setup: column: Zorbax Extend-C18 2.1 x 50 mm; eluents: water / acetonitrile, 0.1% formic acid
parameter: RP-LC retention time (s)

Use the examples below as a reference point.
O=C(CCn1nnc2cc(-c3noc(C4(c5ccccc5)CC4)n3)ccc21)N1CCCC1 = 958
O=C(Cn1nc2c3cc(-c4ccccc4)nn3ccn2c1=O)Nc1ccc(Br)cc1 = 947
CC(C)N1CCN(S(=O)(=O)c2cc(-c3nnc(C4CCC4)o3)co2)CC1 = 622
CCn1ccc(NC(=O)NC2CCCC2)n1 = 730
Cc1cc(F)ccc1NC(=O)C1CCc2nc(N3CCOCC3)ncc2C1 (stereo not given) = 735

P = CCc1ccc(-c2cn3cc(C(=O)N4CCCN(C)CC4)ccc3n2)cc1
Q = COc1cccc(CNC(=O)C2(C)CCCN(C(=O)Nc3cc(C)ccc3C)C2)c1 (stereo not given)
For the two items P and Q , which reports the higher RP-LC retention time value? Return value: the label identifying the chosen record.
Q

====

procedure_summary: gradient 5% acetonitrile 3 min, to 50% in 2 min, to 85% in 15 min, held 3 min, 100 µL/min
experimental_setup: column: Zorbax Extend-C18 2.1 x 50 mm; eluents: water / acetonitrile, 0.1% formic acid
parameter: RP-LC retention time (s)

CCOC(=O)c1cc(OCC)c2c(ccc3ccccc32)n1 = 1080
CCc1nc(-n2cccc2)sc1C(=O)Nc1ccccc1F = 1100
O=C([C@@H]1C[C@H](F)CN1C(=O)c1cccc(Br)c1)N1CCCCC1 = 742
Cc1sc(C)c(S(=O)(=O)NCc2ccccc2)c1-c1cc(C(F)(F)F)on1 = 1140
Cc1cc(C2CCCN2C(=O)Nc2ccc(C)c(Cl)c2)on1 (stereo not given) = 893

====

procedure_summary: gradient 5% acetonitrile 3 min, to 50% in 2 min, to 85% in 15 min, held 3 min, 100 µL/min
experimental_setup: column: Zorbax Extend-C18 2.1 x 50 mm; eluents: water / acetonitrile, 0.1% formic acid
parameter: RP-LC retention time (s)

O=C(Cn1nc2nc(Nc3ccc(F)cc3)ccn2c1=O)NCc1ccc(F)cc1Cl = 753
CCCN1C(=O)c2cccnc2Sc2cc(C(=O)NC(C)C)ccc21 = 753
Cc1noc(-c2ccc(=O)n(Cc3nc(-c4ccccc4)oc3C)c2)n1 = 804
Cc1cc(Br)ccc1-c1ccc(CNCCCN(C)C)o1 = 927
Cc1nccn1CCC(C(N)=O)(c1ccccc1)c1ccccc1 = 688
O=C(NCc1ccc(F)cc1)N1CCc2nc(-c3ccccc3)ncc2C1 = 874
O=S(=O)(Cc1ccc(F)cc1)NCC1(c2ccccc2)CCOCC1 = 818
COc1ccc(-c2nc(C3CC(=O)N(c4ccc(F)c(Cl)c4)C3)no2)cc1 (stereo not given) = 1050
CCc1noc2nc(C)n(CC(=O)NCc3ccccc3)c(=O)c12 = 753
Cc1ccc(C)c(NC(=O)Cc2nnc(-c3cnccn3)o2)c1 = 736

====

procedure_summary: gradient 5% acetonitrile 3 min, to 50% in 2 min, to 85% in 15 min, held 3 min, 100 µL/min
experimental_setup: column: Zorbax Extend-C18 2.1 x 50 mm; eluents: water / acetonitrile, 0.1% formic acid
parameter: RP-LC retention time (s)

CCN(C(=O)Cn1c(N2CCCCC2)nc(C)cc1=O)c1ccccc1 = 661
COc1cccc(CNC(=O)C2(C)CCCN(S(=O)(=O)c3ccc(Cl)cc3)C2)c1 (stereo not given) = 932
O=C(Cn1c(=O)n(-c2ccccc2)c2ncccc21)N1CCN(c2ccccn2)CC1 = 596
Cc1nc(N2CCCC2)c2c(C(=O)Nc3cccc(F)c3)c(C)oc2n1 = 784
COCCN1C(=O)CCc2cc(NS(=O)(=O)c3ccc(F)c(C)c3)ccc21 = 800
O=C(O)c1ccc(CCCc2ccc(OCCc3ccc(F)cc3)cc2)o1 = 1090

I = CCn1nccc1C(=O)Nc1cccc(-c2nnc3n2CCCC3)c1
II = O=S(=O)(c1cc(-c2nnc(C3CCC3)o2)co1)N1CCN(c2ccc(F)cc2)CC1
Lower RP-LC retention time: I or II ? Return value: the label identifying the chosen record.
I
(I: 644 s, II: 1250 s)

a = CC(C)c1cc(CNc2nc(Nc3cc(C4CC4)[nH]n3)cc(N3CCN(C)CC3)n2)on1
b = CCc1nc(-c2csc(S(=O)(=O)N3CCCC(C(=O)Nc4ccc(F)c(Cl)c4)C3)c2)no1 (stereo not given)
For the two items a and b , which reports the higher RP-LC retention time value? Return value: the label identifying the chosen record.
b

A = CCOc1ccc(-c2cn3ccn(-c4ccc(OC)cc4)c(=O)c3n2)cc1
B = Cc1ccccc1NC(=O)C1CCCN(c2nc3ccccc3nc2C(F)(F)F)C1 (stereo not given)
For the two items A and B , which reports the higher RP-LC retention time value? Return value: the label identifying the chosen record.
B

a = CCn1c(=O)c(NCc2cc(F)ccc2F)nc2ccncc21
b = COC(=O)c1ccc(NC(=O)C(=O)NCC2CCN(S(C)(=O)=O)CC2)cc1
For the two items a and b , which reports the higher RP-LC retention time value? Return value: the label identifying the chosen record.
b

I = COc1ccc(NC(=O)Nc2c(-c3cccc(C)c3)nc3ccccn23)cc1
II = COc1cc(OC)c(NC(=O)C(=O)c2ccc[nH]2)cc1Cl
Lower RP-LC retention time: I or II ? Return value: the label identifying the chosen record.
I

====

procedure_summary: gradient 5% acetonitrile 3 min, to 50% in 2 min, to 85% in 15 min, held 3 min, 100 µL/min
experimental_setup: column: Zorbax Extend-C18 2.1 x 50 mm; eluents: water / acetonitrile, 0.1% formic acid
parameter: RP-LC retention time (s)

CCn1ccc(C(=O)N2CCCC2c2ccccc2C)n1 (stereo not given) = 870
CC(C)(C)c1ccc(S(=O)(=O)c2nnn(-c3ccc4c(c3)OCCO4)c2N)cc1 = 944
COc1ccc(N2CCN(S(=O)(=O)c3cc(-c4nc(C)cs4)cs3)CC2)cc1 = 1070
O=c1c2c(CO)c(-c3ccccc3)nn2ccn1Cc1ccc(Br)cc1 = 1010
O=C(Nc1ccc(N2CCN(c3ccccc3)C2=O)nc1)c1ccccc1 = 906
Cc1noc(-c2nc(-c3ccc(Cl)c(F)c3)no2)n1 = 1090
O=S(=O)(Cc1ccccc1F)N1CCC(c2noc(-c3ccncc3)n2)C1 (stereo not given) = 839
O=C(COc1ccccc1Br)Nc1nc(-c2ccccc2)cs1 = 1130

A = Cc1ccc(C)c(-c2nc(NC(=O)c3cc(C)on3)sc2C)c1
B = O=C(NCCCN1CCN(c2ccccc2F)CC1)c1nnc(-c2ccccc2)o1
For the two items A and B , which reports the higher RP-LC retention time value? Return value: the label identifying the chosen record.
A

====

procedure_summary: gradient 5% acetonitrile 3 min, to 50% in 2 min, to 85% in 15 min, held 3 min, 100 µL/min
experimental_setup: column: Zorbax Extend-C18 2.1 x 50 mm; eluents: water / acetonitrile, 0.1% formic acid
parameter: RP-LC retention time (s)

CC(C)CCNC(=O)N(C)Cc1nc2cc(C(=O)NC(C)C)ccc2n1C = 626

A = Cc1noc(C)c1-c1ccc(S(=O)(=O)NC2CC2)cc1
B = CCOc1cccc(-c2noc(Cc3nnc(-c4ccc(C)c(F)c4)o3)n2)c1
Lower RP-LC retention time: A or B ? Return value: the label identifying the chosen record.
A
(A: 786 s, B: 1160 s)

====

procedure_summary: gradient 5% acetonitrile 3 min, to 50% in 2 min, to 85% in 15 min, held 3 min, 100 µL/min
experimental_setup: column: Zorbax Extend-C18 2.1 x 50 mm; eluents: water / acetonitrile, 0.1% formic acid
parameter: RP-LC retention time (s)

Cc1ccc(N2CCC(NC(=O)c3ccc(Br)o3)C2=O)cc1 (stereo not given) = 812
CC(C(=O)Nc1ccc(F)c(F)c1)C1CCN(C(=O)Nc2ccc(Cl)cc2)CC1 (stereo not given) = 984
COc1ccc(NC(=O)C2CCN(S(C)(=O)=O)c3cc(C)ccc3O2)cc1Cl (stereo not given) = 957

1 = Cc1cc(NS(=O)(=O)c2cn(CC(C)C)c3ncccc23)ccc1F
2 = O=C(Nc1ccc(F)cc1F)Nc1c(-c2ccccc2)nc2ccccn12
Lower RP-LC retention time: 1 or 2 ? Return value: the label identifying the chosen record.
2
(2: 660 s, 1: 989 s)

====

procedure_summary: gradient 5% acetonitrile 3 min, to 50% in 2 min, to 85% in 15 min, held 3 min, 100 µL/min
experimental_setup: column: Zorbax Extend-C18 2.1 x 50 mm; eluents: water / acetonitrile, 0.1% formic acid
parameter: RP-LC retention time (s)

A = CCCNC(=O)C1CCN(c2ccc(SCC(=O)Nc3ccc(N(CC)CC)cc3C)nn2)CC1
B = CCCn1cc(S(=O)(=O)NCc2ccccc2)c2cccnc21
Lower RP-LC retention time: A or B ? Return value: the label identifying the chosen record.
A
(A: 576 s, B: 863 s)

// data source = the METLIN SMRT retention time set (Domingo-Almenara et al. 2019)
